Origin of the recorded values: ChEMBL document CHEMBL3632592

In this section, each of the molecules is paired with its reported IC50.
Assay: Antioxidant activity assessed as inhibition of Fe2+-induced DMPO-OH adduct formation from H2O2 preincubated for 30 secs followed by DMPO/H2O2 addition measured after 150 secs by ESR analysis
Format: physicochemical
OBSERVED PROPERTY: IC50

[
  {
    "MOLECULE": "CSc1nc(N)c2ncn([C@@H]3O[C@H](COP(=O)(O)OP(=O)(O)S)[C@@H](O)[C@H]3O)c2n1 (some centres not stated)",
    "MEAS VALUE": "21 µM"
  },
  {
    "MOLECULE": "O=C(O)CN(CCN(CC(=O)O)CC(=O)O)CC(=O)O",
    "MEAS VALUE": "54 µM"
  },
  {
    "MOLECULE": "CSc1nc(N)c2ncn([C@@H]3O[C@H](COP(=O)(S)OP(=O)(O)O)[C@@H](O)[C@H]3O)c2n1 (stereo in doubt; 7A)",
    "MEAS VALUE": "37 µM"
  },
  {
    "MOLECULE": "Nc1ncnc2c1ncn2[C@@H]1O[C@H](COP(=O)(S)OP(=O)(O)O)[C@@H](O)[C@H]1O (stereo in doubt; 6A)",
    "MEAS VALUE": "31 µM"
  },
  {
    "MOLECULE": "Nc1nc(Cl)nc2c1ncn2[C@@H]1O[C@H](COP(=O)(S)OP(=O)(O)OP(=O)(O)O)[C@@H](O)[C@H]1O (stereo in doubt; 9B)",
    "MEAS VALUE": "27 µM"
  },
  {
    "MOLECULE": "Nc1nc(Cl)nc2c1ncn2[C@@H]1O[C@H](COP(=O)(S)OP(=O)(O)OP(=O)(O)O)[C@@H](O)[C@H]1O (stereo in doubt; 9A)",
    "MEAS VALUE": "37 µM"
  },
  {
    "MOLECULE": "Nc1nc(Cl)nc2c1ncn2[C@@H]1O[C@H](COP(=O)(S)OP(=O)(O)O)[C@@H](O)[C@H]1O (stereo in doubt; 8A)",
    "MEAS VALUE": "36 µM"
  }
]

###

Assay: Antioxidant activity assessed as ABTS radical scavenging activity after 7 mins
Assay type: physicochemical
pIC50: −log10 of the molar value.

[
  {
    "COMPOUND": "Nc1nc(Cl)nc2c1ncn2[C@@H]1O[C@H](COP(=O)(S)OP(=O)(O)OP(=O)(O)O)[C@@H](O)[C@H]1O (stereo in doubt; 9B)",
    "pIC50": 4.62
  },
  {
    "COMPOUND": "CSc1nc(N)c2ncn([C@@H]3O[C@H](COP(=O)(S)OP(=O)(O)O)[C@@H](O)[C@H]3O)c2n1 (stereo in doubt; 7B)",
    "pIC50": 4.92
  },
  {
    "COMPOUND": "Nc1nc(Cl)nc2c1ncn2[C@@H]1O[C@H](COP(=O)(S)OP(=O)(O)OP(=O)(O)O)[C@@H](O)[C@H]1O (stereo in doubt; 9A)",
    "pIC50": 4.60
  },
  {
    "COMPOUND": "Cc1c(C)c2c(c(C)c1O)CCC(C)(C(=O)O)O2 (centres undefined)",
    "pIC50": 4.74
  }
]

###

Biological target: P2Y purinoceptor 1 (Homo sapiens, UniProt P47900)
Sequence (P47900 whole entry): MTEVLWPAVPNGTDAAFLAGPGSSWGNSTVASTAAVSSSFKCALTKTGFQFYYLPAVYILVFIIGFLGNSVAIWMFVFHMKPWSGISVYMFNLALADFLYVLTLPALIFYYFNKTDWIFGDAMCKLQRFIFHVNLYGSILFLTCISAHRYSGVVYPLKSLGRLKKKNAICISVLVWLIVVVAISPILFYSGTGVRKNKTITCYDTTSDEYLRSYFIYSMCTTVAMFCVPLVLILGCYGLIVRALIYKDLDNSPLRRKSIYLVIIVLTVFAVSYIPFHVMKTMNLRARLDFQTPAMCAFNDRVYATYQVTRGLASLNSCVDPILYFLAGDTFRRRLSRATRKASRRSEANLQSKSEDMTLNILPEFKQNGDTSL
Experiment: Agonist activity at GFP-tagged human P2Y1R transfected in human 1321N1 cells assessed as increase in intracellular Ca2+ level by fura 2/AM probe-based fluorescence assay
Type: functional, cell-based
pEC50: −log10 of the molar value.
In this section, each of the compounds is paired with its reported pEC50.
OBSERVED PROPERTY: pEC50

[
  {
    "COMPOUND": "Nc1nc(Cl)nc2c1ncn2[C@@H]1O[C@H](COP(=O)(S)OP(=O)(O)OP(=O)(O)O)[C@@H](O)[C@H]1O (stereo in doubt; 9A)",
    "MEAS VALUE": 6.14
  },
  {
    "COMPOUND": "CSc1nc(N)c2ncn([C@@H]3O[C@H](COP(=O)(S)OP(=O)(O)O)[C@@H](O)[C@H]3O)c2n1 (stereo in doubt; 7A)",
    "MEAS VALUE": 8.59
  },
  {
    "COMPOUND": "Nc1nc(Cl)nc2c1ncn2[C@@H]1O[C@H](COP(=O)(S)OP(=O)(O)O)[C@@H](O)[C@H]1O (stereo in doubt; 8A)",
    "MEAS VALUE": 7.52
  },
  {
    "COMPOUND": "Nc1ncnc2c1ncn2[C@@H]1O[C@H](COP(=O)(O)OP(=O)(O)S)[C@@H](O)[C@H]1O (some centres not stated)",
    "MEAS VALUE": 5.90
  },
  {
    "COMPOUND": "Nc1nc(Cl)nc2c1ncn2[C@@H]1O[C@H](COP(=O)(S)OP(=O)(O)O)[C@@H](O)[C@H]1O (stereo in doubt; 8B)",
    "MEAS VALUE": 5.82
  },
  {
    "COMPOUND": "Nc1ncnc2c1ncn2[C@@H]1O[C@H](COP(=O)(S)OP(=O)(O)O)[C@@H](O)[C@H]1O (stereo in doubt; 6A)",
    "MEAS VALUE": 7.10
  },
  {
    "COMPOUND": "CSc1nc(N)c2ncn([C@@H]3O[C@H](COP(=O)(O)OP(=O)(O)S)[C@@H](O)[C@H]3O)c2n1 (some centres not stated)",
    "MEAS VALUE": 7.43
  }
]

###

Assay: Antioxidant activity assessed as inhibition of Fe2+-induced DMPO-OH adduct formation from H2O2 preincubated for 30 secs followed by DMPO/H2O2 addition measured after 150 secs by ESR analysis
Type: physicochemical
In this section, each of the compounds is paired with its reported IC50.
OBSERVED PROPERTY: IC50 (µM)

[
  {
    "COMPOUND": "Nc1ncnc2c1ncn2[C@@H]1O[C@H](COP(=O)(O)OP(=O)(O)O)[C@@H](O)[C@H]1O [ADENOSINE DIPHOSPHATE]",
    "MEAS VALUE": 170
  },
  {
    "COMPOUND": "CSc1nc(N)c2ncn([C@@H]3O[C@H](COP(=O)(S)OP(=O)(O)O)[C@@H](O)[C@H]3O)c2n1 (stereo in doubt; 7B)",
    "MEAS VALUE": 38
  },
  {
    "COMPOUND": "Nc1nc(Cl)nc2c1ncn2[C@@H]1O[C@H](COP(=O)(O)OP(=O)(O)S)[C@@H](O)[C@H]1O (stereo partly specified)",
    "MEAS VALUE": 21
  },
  {
    "COMPOUND": "Nc1ncnc2c1ncn2[C@@H]1O[C@H](COP(=O)(O)OP(=O)(O)S)[C@@H](O)[C@H]1O (stereo partly specified)",
    "MEAS VALUE": 19
  },
  {
    "COMPOUND": "Nc1nc(Cl)nc2c1ncn2[C@@H]1O[C@H](COP(=O)(S)OP(=O)(O)O)[C@@H](O)[C@H]1O (stereo in doubt; 8B)",
    "MEAS VALUE": 39
  },
  {
    "COMPOUND": "Nc1ncnc2c1ncn2[C@@H]1O[C@H](COP(=O)(S)OP(=O)(O)O)[C@@H](O)[C@H]1O (stereo in doubt; 6B)",
    "MEAS VALUE": 36
  }
]

###

Biological target: P2Y purinoceptor 11 (Homo sapiens)
Sequence (Q96G91 whole entry): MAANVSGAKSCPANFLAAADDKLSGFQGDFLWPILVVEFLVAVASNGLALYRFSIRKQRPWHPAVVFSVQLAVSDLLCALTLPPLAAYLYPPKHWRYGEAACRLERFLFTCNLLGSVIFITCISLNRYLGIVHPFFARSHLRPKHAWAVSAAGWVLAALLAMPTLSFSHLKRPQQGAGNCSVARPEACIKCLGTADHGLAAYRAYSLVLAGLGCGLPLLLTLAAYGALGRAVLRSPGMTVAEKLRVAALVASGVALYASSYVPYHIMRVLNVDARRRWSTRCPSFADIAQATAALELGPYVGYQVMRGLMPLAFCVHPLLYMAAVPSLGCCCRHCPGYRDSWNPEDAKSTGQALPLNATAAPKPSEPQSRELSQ
Assay: Agonist activity at GFP-tagged human P2Y11R transfected in human 1321N1 cells assessed as increase in intracellular Ca2+ level by fura 2/AM probe-based fluorescence assay
Format: functional, cell-based
pEC50: −log10 of the molar value.
In this section, each of the compounds is paired with its reported pEC50.

[
  {
    "COMPOUND": "CSc1nc(N)c2ncn([C@@H]3O[C@H](COP(=O)(S)OP(=O)(O)O)[C@@H](O)[C@H]3O)c2n1 (stereo in doubt; 7B)",
    "pEC50": 6.00
  },
  {
    "COMPOUND": "Nc1nc(Cl)nc2c1ncn2[C@@H]1O[C@H](COP(=O)(O)OP(=O)(O)S)[C@@H](O)[C@H]1O (stereo partly specified)",
    "pEC50": 6.00
  },
  {
    "COMPOUND": "Nc1nc(Cl)nc2c1ncn2[C@@H]1O[C@H](COP(=O)(S)OP(=O)(O)O)[C@@H](O)[C@H]1O (stereo in doubt; 8A)",
    "pEC50": 5.85
  },
  {
    "COMPOUND": "Nc1ncnc2c1ncn2[C@@H]1O[C@H](COP(=O)(S)OP(=O)(O)O)[C@@H](O)[C@H]1O (stereo in doubt; 6A)",
    "pEC50": 5.35
  },
  {
    "COMPOUND": "Nc1ncnc2c1ncn2[C@@H]1O[C@H](COP(=O)(S)OP(=O)(O)O)[C@@H](O)[C@H]1O (stereo in doubt; 6B)",
    "pEC50": 5.06
  },
  {
    "COMPOUND": "Nc1ncnc2c1ncn2[C@@H]1O[C@H](COP(=O)(O)OP(=O)(O)S)[C@@H](O)[C@H]1O (stereo partly specified)",
    "pEC50": 4.49
  },
  {
    "COMPOUND": "CSc1nc(N)c2ncn([C@@H]3O[C@H](COP(=O)(S)OP(=O)(O)O)[C@@H](O)[C@H]3O)c2n1 (stereo in doubt; 7A)",
    "pEC50": 5.49
  },
  {
    "COMPOUND": "Nc1nc(Cl)nc2c1ncn2[C@@H]1O[C@H](COP(=O)(S)OP(=O)(O)OP(=O)(O)O)[C@@H](O)[C@H]1O (stereo in doubt; 9A)",
    "pEC50": 5.04
  },
  {
    "COMPOUND": "Nc1nc(Cl)nc2c1ncn2[C@@H]1O[C@H](COP(=O)(S)OP(=O)(O)O)[C@@H](O)[C@H]1O (stereo in doubt; 8B)",
    "pEC50": 6.30
  },
  {
    "COMPOUND": "CSc1nc(N)c2ncn([C@@H]3O[C@H](COP(=O)(O)OP(=O)(O)S)[C@@H](O)[C@H]3O)c2n1 (stereo partly specified)",
    "pEC50": 6.05
  },
  {
    "COMPOUND": "Nc1nc(Cl)nc2c1ncn2[C@@H]1O[C@H](COP(=O)(S)OP(=O)(O)OP(=O)(O)O)[C@@H](O)[C@H]1O (stereo in doubt; 9B)",
    "pEC50": 5.96
  }
]
